Ref: paper PMC7819943

Quick reference: binding signal of the listed items.
Biological target: OsSMF1 (Oryza sativa, UniProt Q6ZLB0 1-436)
Sequence: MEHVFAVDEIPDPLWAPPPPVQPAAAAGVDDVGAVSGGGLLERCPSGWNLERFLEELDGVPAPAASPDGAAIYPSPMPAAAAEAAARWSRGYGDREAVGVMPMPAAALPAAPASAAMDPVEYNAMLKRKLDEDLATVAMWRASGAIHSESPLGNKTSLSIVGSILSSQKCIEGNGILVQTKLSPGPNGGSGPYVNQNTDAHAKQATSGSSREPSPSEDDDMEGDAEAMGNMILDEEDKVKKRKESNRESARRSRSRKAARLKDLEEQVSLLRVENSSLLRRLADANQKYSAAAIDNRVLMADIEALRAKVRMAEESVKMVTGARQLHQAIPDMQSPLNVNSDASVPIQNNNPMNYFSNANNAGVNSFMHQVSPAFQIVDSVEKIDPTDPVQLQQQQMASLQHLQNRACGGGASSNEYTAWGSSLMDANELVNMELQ
Experiment: protein-binding microarray (RPBM); PBS, 2% BSA, 51.3 ng/ul salmon testes DNA, 50 uM zinc acetate, 200 nM TF, 25 C, 1 h; high values mean tight binding
Details: protein: recombinant; tags: N-terminal polyhistidine and DsRed monomer fusion (pET32a); chain copies: 2; label: CyDye5-dUTP incorporated in the synthesized complementary strand; 3' TTTTT single-stranded linker to array surface; dsDNA, one strand shown
Whole data set: some 39,000 sequences, median “fluorescence intensity (a.u.)” near 4,300, cut for the highest 2% near 39,000. Shown is part of a subset that was picked to be rich in the highest values.
Reported Property: binding signal

Primary Sequence	Result
TCTTCAAACTTCCAACTTTTCCATCACATCAAAACTTTCCCGGAGTCACCTAGTGCAG	3340 fluorescence intensity (a.u.)
GATAGGCAAAGCTTCGAACTTTGGGCTGAAAACAAATTTTCGGAGTCACCTAGTGCAG	28400 fluorescence intensity (a.u.)
CTTTTCCCCGACTAAACACACCCATACTGTCAAAAGGTAACGGAGTCACCTAGTGCAG	26800 fluorescence intensity (a.u.)
ATTATTCATAAGCTGAATATTCTTATTCATACATTCGGATCGGAGTCACCTAGTGCAG	6460 fluorescence intensity (a.u.)
CAGAGGCAAACGTACGTGGAGGCAGGAGGAGTGGTCACCGCGGAGTCACCTAGTGCAG	4440 fluorescence intensity (a.u.)

----------
Target: OsSMF1 (Oryza sativa, UniProt Q6ZLB0 1-436)
Sequence: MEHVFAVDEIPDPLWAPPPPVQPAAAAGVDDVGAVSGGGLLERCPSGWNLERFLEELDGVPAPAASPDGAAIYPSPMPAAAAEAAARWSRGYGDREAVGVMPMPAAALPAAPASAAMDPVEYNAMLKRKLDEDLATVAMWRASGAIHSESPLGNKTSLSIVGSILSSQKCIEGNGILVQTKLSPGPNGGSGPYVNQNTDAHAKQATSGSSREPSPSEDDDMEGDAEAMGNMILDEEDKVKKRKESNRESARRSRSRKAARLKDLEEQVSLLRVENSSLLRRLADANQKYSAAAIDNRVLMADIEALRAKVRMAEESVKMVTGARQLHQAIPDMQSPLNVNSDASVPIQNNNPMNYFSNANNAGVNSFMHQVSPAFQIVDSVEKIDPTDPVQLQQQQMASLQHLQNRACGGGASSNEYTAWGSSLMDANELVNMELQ
Assay: protein-binding microarray (RPBM); PBS, 2% BSA, 51.3 ng/ul salmon testes DNA, 50 uM zinc acetate, 200 nM TF, 25 C, 1 h; high values mean tight binding
Details: protein: recombinant; tags: N-terminal polyhistidine and DsRed monomer fusion (pET32a); chain copies: 2; label: CyDye5-dUTP incorporated in the synthesized complementary strand; 3' TTTTT single-stranded linker to array surface; dsDNA, one strand shown
The full ranking holds about 39,000 sequences; the median of “fluorescence intensity (a.u.)” is about 4,300, and the highest 2% start at about 39,000. For the sample, the highest values were picked, then their nearest neighbours and some sequences at random.
Reported Property: binding signal

Primary Sequence	Reported Property	Result
TGAATCCACAGCCACGCCACGCGGCCCATGCCTACGCCTCCGGAGTCACCTAGTGCAG	binding signal	4000 fluorescence intensity (a.u.)
CTCCTTGTCCACGTGGCGGCCTCCGATTCGCTGCCACCTCCGGAGTCACCTAGTGCAG	binding signal	23900 fluorescence intensity (a.u.)
GTGGAGTGCGGTGGACGGAGCGGCGGGGCGGGGCGGTCAGCGGAGTCACCTAGTGCAG	binding signal	6720 fluorescence intensity (a.u.)
CTTGGTGGTTTTATAGGGTGGTTTCGCTGACGTGGCGTGGCGGAGTCACCTAGTGCAG	binding signal	44600 fluorescence intensity (a.u.)
GGGTTCGATTCCCCGCACCTCCAATATAAAACGTTTTCTTCGGAGTCACCTAGTGCAG	binding signal	3420 fluorescence intensity (a.u.)
GAAACTTTCCTACGCACAAACTTTCAACTTTTACGTCACACGGAGTCACCTAGTGCAG	binding signal	3340 fluorescence intensity (a.u.)
CGTGTCCTAATCACCTTGCTTACGTGGCACTTGCCGATTCCGGAGTCACCTAGTGCAG	binding signal	43900 fluorescence intensity (a.u.)
TCCCTTGGCAGTATAGGTGGGTGGTTTTGCTTACGTGGCACGGAGTCACCTAGTGCAG	binding signal	40000 fluorescence intensity (a.u.)
TGTAGTGTTACAGTATGCCACGTCATCATGCTACGCTATTCGGAGTCACCTAGTGCAG	binding signal	43900 fluorescence intensity (a.u.)
ATCTGTCTTTGTTTGAAATCAGATTGGTTCAAAACAAGCGCGGAGTCACCTAGTGCAG	binding signal	21900 fluorescence intensity (a.u.)
TCTTACAGCGCGCGTGTTCGTTCGAACGATTCTCTTCTTCCGGAGTCACCTAGTGCAG	binding signal	51900 fluorescence intensity (a.u.)
AACCTGCTGTCCACTACAACGTCACATTTCAACAAATCCACGGAGTCACCTAGTGCAG	binding signal	34200 fluorescence intensity (a.u.)
TCCCTTGACGGTTTTGGCTGACGTGGCGCCTAGGTGGCTACGGAGTCACCTAGTGCAG	binding signal	30000 fluorescence intensity (a.u.)
TTTAGATGGCGGTTTTGGCTGACGTGGCACATATGTGGCTCGGAGTCACCTAGTGCAG	binding signal	33100 fluorescence intensity (a.u.)

----------
Quick reference: binding signal of the listed items.
Biological target: OsSMF1 (Oryza sativa, UniProt Q6ZLB0 1-436)
Sequence: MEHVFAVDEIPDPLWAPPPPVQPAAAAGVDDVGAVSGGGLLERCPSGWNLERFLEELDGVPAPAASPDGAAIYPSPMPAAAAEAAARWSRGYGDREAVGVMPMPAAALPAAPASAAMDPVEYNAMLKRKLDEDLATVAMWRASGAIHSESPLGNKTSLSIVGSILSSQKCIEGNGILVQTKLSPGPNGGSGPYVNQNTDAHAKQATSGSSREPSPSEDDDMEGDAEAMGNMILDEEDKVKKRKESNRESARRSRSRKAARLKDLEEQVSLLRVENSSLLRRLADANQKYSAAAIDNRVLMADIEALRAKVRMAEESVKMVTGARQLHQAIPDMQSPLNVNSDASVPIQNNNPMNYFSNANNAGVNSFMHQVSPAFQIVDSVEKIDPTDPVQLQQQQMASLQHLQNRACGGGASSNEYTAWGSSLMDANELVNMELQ
Assay: protein-binding microarray (RPBM); PBS, 2% BSA, 51.3 ng/ul salmon testes DNA, 50 uM zinc acetate, 200 nM TF, 25 C, 1 h; high values mean tight binding
Details: protein: recombinant; tags: N-terminal polyhistidine and DsRed monomer fusion (pET32a); chain copies: 2; label: CyDye5-dUTP incorporated in the synthesized complementary strand; 3' TTTTT single-stranded linker to array surface; dsDNA, one strand shown
Over roughly 39,000 sequences, “fluorescence intensity (a.u.)” has its median near 4,300; the highest 2% begin near 39,000. Only a selection was taken, and the highest values are over-represented in it overall.

Primary Sequence	binding signal
TCGATTCATTCGTTCCTTGGGTCGTGTCAGCATGGCCCATCGGAGTCACCTAGTGCAG	11100 fluorescence intensity (a.u.)
AAGGTAGAGTCAAATAGAAGCTCTATATCATGTAGACACTCGGAGTCACCTAGTGCAG	3360 fluorescence intensity (a.u.)
AGAGGTTCAAACTGTATATGTTCTAGACCATTCACAAGCTCGGAGTCACCTAGTGCAG	64100 fluorescence intensity (a.u.)
GAGTTTAATTAATTAATTTCTTAAAATTGATGTCATCACACGGAGTCACCTAGTGCAG	3140 fluorescence intensity (a.u.)
GAGAATTCTCCACGAAAAGAGGAGAACGAACCACATCAAACGGAGTCACCTAGTGCAG	3380 fluorescence intensity (a.u.)
CACGGCATCGGCATCGGCAGCCACGCCTCGCGTGGCACGGCGGAGTCACCTAGTGCAG	4720 fluorescence intensity (a.u.)
ACCGCCATGTAGGTGCCACGTCATCGCCACGTGGAACGAACGGAGTCACCTAGTGCAG	32700 fluorescence intensity (a.u.)
CCACACAGCGATAATCGAGCGGATTGGACCAAAGTACGAGCGGAGTCACCTAGTGCAG	38200 fluorescence intensity (a.u.)
TAGCATAGCCAACTGCTGACTCCAAATTATCTATAGTCAACGGAGTCACCTAGTGCAG	3850 fluorescence intensity (a.u.)
ATAGCCCGTCCTCTTCATGGACCACGGTGTACAGCTTGCTCGGAGTCACCTAGTGCAG	3980 fluorescence intensity (a.u.)
GTTGACGGGGTTTGTGAGGTGTGGCGGTGACTTGGAAAGACGGAGTCACCTAGTGCAG	3540 fluorescence intensity (a.u.)
